Method summary: Tissue distribution in SW female mice, intravenous (Example 1)
Format: in vivo
Assay conditions: mouse, kidney, iv, first experiment, 25 mg/kg intravenously, 30 min after injection, read-out: concentration in kidney
Measured metric: concentration at 30 min (µM)
Give the value in µM but do not write µM after it.

**Q:** Quick one: concentration at 30 min for `CN(NC(=O)CC(=O)NN(C)C(=S)C1CC1)C(=S)C1CC1` ?
**A:** 50
